# tested system: Neuropeptides B/W receptor type 1 (Homo sapiens)
# assay name: human NPBW1 receptor blockade – cell-based, fluorescence, percent inhibition, late-stage follow-up (AID 588562)
# reported conditions: GPR7-expressing cells, fluorescence antagonist assay; at 20 µM; active compounds read high
measured attribute: inhibition (%)
# output: bare number, implied unit %

INSERT INTO measurements (mol_smiles, measured_attribute, units, observed) VALUES
  ('CCOc1ccc(Oc2c(Cl)cnn(-c3ccc(C(C)C)cc3)c2=O)cc1', 'inhibition', '%', 46),
  ('COc1ccc(Oc2c(-n3nnc(C)c3C)cnn(-c3ccc(C(C)C)cc3)c2=O)cc1', 'inhibition', '%', 15),
  ('COc1ccc(Oc2c(N3CCN(C(=O)OC(C)(C)C)CC3)cnn(-c3ccc(C(C)C)cc3)c2=O)cc1', 'inhibition', '%', 15),
  ('COc1ccc(Oc2c(NC(C)=O)cnn(-c3ccc(C(C)C)cc3)c2=O)cc1', 'inhibition', '%', 15);

Now take the following compound into account.
-- ask Query (compound): `CC(C)c1ccc(-n2ncc(NCc3ccccc3)c(Cl)c2=O)cc1` ; field requested: inhibition
-- reply -18

----------
# tested system: Neuropeptides B/W receptor type 1 (Homo sapiens) (UniProt P48145)
# Sequence (P48145 whole entry, looked up): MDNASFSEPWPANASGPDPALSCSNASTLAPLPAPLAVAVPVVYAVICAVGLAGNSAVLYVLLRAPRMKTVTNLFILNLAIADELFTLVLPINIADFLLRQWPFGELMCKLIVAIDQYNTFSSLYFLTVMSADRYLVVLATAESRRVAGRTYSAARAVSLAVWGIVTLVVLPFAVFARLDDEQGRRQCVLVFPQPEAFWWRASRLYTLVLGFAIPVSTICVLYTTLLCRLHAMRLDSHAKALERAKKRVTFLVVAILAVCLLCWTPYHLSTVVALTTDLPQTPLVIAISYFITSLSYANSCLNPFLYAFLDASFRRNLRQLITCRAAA
# assay name: human NPBW1 receptor blockade – cell-based, fluorescence, percent inhibition, late-stage follow-up (AID 588562)
# reported conditions: GPR7-expressing cells, fluorescence antagonist assay; at 20 µM; active compounds read high
Think of 30% as a floor: if inhibition stands on it or above, it is fulfilled; beneath it, not fulfilled.

INSERT INTO assay_data (mol_smiles, assigned_label) VALUES
  ('COc1ccc(COc2c(Cl)cnn(-c3ccc(C(C)C)cc3)c2=O)cc1', 'not fulfilled');

-- ask Could you please find out whether `CC(C)c1ccc(-n2ncc(Cl)c(Oc3cc(C(C)(C)C)cc(C(C)(C)C)c3)c2=O)cc1` has inhibition that meets 30% or exceeds it?
-- reply not fulfilled

-- ask Could you please find out whether `CC(C)c1ccc(-n2ncc(Cl)c(Oc3ccc(C(F)(F)F)cc3)c2=O)cc1` has inhibition that meets 30% or exceeds it?
-- reply fulfilled

-- ask Could you please find out whether `COc1ccc(Oc2c(N3CCOCC3)cnn(-c3ccc(C(C)C)cc3)c2=O)cc1` has inhibition that meets 30% or exceeds it?
-- reply fulfilled

-- ask Could you please find out whether `COc1ccc(Oc2c(N3CCN(C)CC3)cnn(-c3ccc(C(C)C)cc3)c2=O)cc1` has inhibition that meets 30% or exceeds it?
-- reply not fulfilled

-- ask Could you please find out whether `COc1ccc(Oc2c(C(=O)O)cnn(-c3ccc(C(C)C)cc3)c2=O)cc1` has inhibition that meets 30% or exceeds it?
-- reply not fulfilled

-- ask Could you please find out whether `COc1ccc(Oc2ccnn(-c3ccc(C)cc3)c2=O)cc1` has inhibition that meets 30% or exceeds it?
-- reply not fulfilled

-- ask Could you please find out whether `COc1ccc(Oc2c(N)cnn(-c3ccc(C(C)C)cc3)c2=O)cc1` has inhibition that meets 30% or exceeds it?
-- reply not fulfilled

-- ask Could you please find out whether `COc1ccc(Oc2c(N)cnn(-c3ccc(C(F)(F)F)cc3)c2=O)cc1` has inhibition that meets 30% or exceeds it?
-- reply fulfilled

-- ask Could you please find out whether `COc1ccc(Oc2c(C(=O)N(C)C)cnn(-c3ccc(C(C)C)cc3)c2=O)cc1` has inhibition that meets 30% or exceeds it?
-- reply not fulfilled
